Molecular target: SLC45A4 (Homo sapiens)
Sequence (Q5BKX6 1-768): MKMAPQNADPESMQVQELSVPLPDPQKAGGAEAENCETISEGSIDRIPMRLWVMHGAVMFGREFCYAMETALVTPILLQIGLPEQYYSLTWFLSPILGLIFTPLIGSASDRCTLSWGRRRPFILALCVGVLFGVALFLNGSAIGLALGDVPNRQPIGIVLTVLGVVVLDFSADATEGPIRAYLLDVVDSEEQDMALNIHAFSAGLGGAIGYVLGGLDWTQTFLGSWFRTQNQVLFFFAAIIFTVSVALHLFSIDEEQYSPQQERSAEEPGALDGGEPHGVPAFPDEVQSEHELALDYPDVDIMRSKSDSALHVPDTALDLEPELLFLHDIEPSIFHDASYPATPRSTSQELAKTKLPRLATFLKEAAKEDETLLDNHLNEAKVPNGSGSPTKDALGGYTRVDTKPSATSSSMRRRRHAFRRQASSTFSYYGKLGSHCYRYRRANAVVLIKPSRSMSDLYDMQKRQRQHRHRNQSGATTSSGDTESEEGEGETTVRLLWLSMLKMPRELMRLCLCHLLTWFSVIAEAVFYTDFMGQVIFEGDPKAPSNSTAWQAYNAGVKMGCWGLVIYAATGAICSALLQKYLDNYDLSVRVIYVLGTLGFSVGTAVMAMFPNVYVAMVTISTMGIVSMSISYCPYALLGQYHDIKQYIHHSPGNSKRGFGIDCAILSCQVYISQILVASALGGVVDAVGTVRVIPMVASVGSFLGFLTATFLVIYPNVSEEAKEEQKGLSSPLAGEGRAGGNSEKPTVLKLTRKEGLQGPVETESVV
Test: competition of […]-SPD uptake in Neuro-2A cells overexpressing SLC45A4; also nanoDSF on purified protein
Type: cell-based
Set-up: full-length human SLC45A4
Field: pIC50. Provide a value for each of the compounds that follow.
One number for each entry, as −log10 of the molar value.

| compound | pIC50 |
| --- | --- |
| NCCCCCN [Cad, cadaverine] | 4.17 |

Turning now to a further record.
Incoming: Could you share which pIC50 value was measured for NCCCCN [Put, putrescine] ?
Outgoing: 4.13
